System: Pyricularia grisea f. sp. oryzae
Assay type: in vivo
Conditions: 200 ppm spray, Rice Blast
Measured attribute: RB disease control rating

{"Compound": "CCCOc1cc(F)c(-c2c(Cl)nc3n(CCC)cnn3c2=NC(C)C(F)(F)F)c(F)c1 (stereo not shown)", "Result": "4 (45-59)"}
{"Compound": "CCn1c(Cl)c(-c2c(F)cc(F)cc2F)c(=NC(C)C(F)(F)F)n2ncnc12 (stereo not shown)", "Result": "5 (60-74)"}

Hello, I would appreciate it if you could give RB disease control rating for each entry below.
1. Cn1c(Cl)c(-c2c(F)cc(F)cc2F)c(=NCC(F)(F)F)n2ncnc12 [Example 17]
2. COc1cc(F)c(-c2c(Cl)nc3n(C)cnn3c2=NC(C)C(F)(F)F)c(F)c1 (stereo not shown)
3. CC(N=c1c(-c2ccc(F)cc2F)c(Cl)n(C)c2ncnn12)C(F)(F)F (stereo not shown)
4. CCCn1c(Cl)c(-c2c(F)cc(F)cc2F)c(=NC(C)C(F)(F)F)n2ncnc12 (stereo not shown)
5. CC(N=c1c(-c2ccccc2Cl)c(Cl)n(C)c2ncnn12)C(F)(F)F (stereo not shown)
6. Cn1c(Cl)c(-c2c(F)cc(F)cc2F)c(=NCC(F)(F)F)n2ncnc12 [Example 1A]
7. CC(N=c1c(-c2c(F)cccc2F)c(Cl)n(C)c2ncnn12)C(F)(F)F (stereo not shown)

**Result**
1. 4 (45-59)
2. 0 (0)
3. 4 (45-59)
4. 0 (0)
5. 5 (60-74)
6. 6 (75-89)
7. 0 (0)

Hello, I would appreciate it if you could give RB disease control rating for each entry below.
1. Cn1c(Cl)c(-c2c(F)cc(F)cc2F)c(=NCC(F)(F)F)n2ncnc12 [Example 8]
2. CCn1cnn2c(=NC(C)C(F)(F)F)c(-c3c(F)cc(F)cc3F)c(Cl)nc12 (stereo not shown)
3. CC(N=c1c(-c2ccc(F)cc2F)c(Cl)nc2n(C)cnn12)C(F)(F)F (stereo not shown)
4. CC(N=c1c(-c2ccccc2Cl)c(Cl)nc2n(C)cnn12)C(F)(F)F (stereo not shown)
5. CC(N=c1c(-c2c(F)cccc2F)c(Cl)nc2n(C)cnn12)C(F)(F)F (stereo not shown)
6. CCCn1cnn2c(=NC(C)C(F)(F)F)c(-c3c(F)cc(F)cc3F)c(Cl)nc12 (stereo not shown)
7. CCCn1cnn2c(=NC(C)C(F)(F)F)c(-c3c(F)cc(OC)cc3F)c(Cl)nc12 (stereo not shown)

**Result**
4 (45-59)
6 (75-89)
0 (0)
0 (0)
0 (0)
4 (45-59)
0 (0)
